In this section we review reported Minimum inhibitory concentration values for a set of molecules.
# Test system: clinical strains of Acinetobacter baumannii
# Protocol details: MIC, microdilution, clinical strains
# Format: cell-based
# Set-up: unit: μg/ml
# Settings: Acinetobacter baumannii strain 3, Muller Hinton broth-cation adjusted, 0.02% BSA, 0.2% acetic acid
Where a SMILES comes first, the peptide text is derived from it. [ ]: non-standard residue; d: D form.
Write the value as a bare number.

Consider the following illustrative entries.
[[record]]
molecule = "CC(C)C[C@@H](NC(=O)[C@H](N)CCCNC(=N)N)C(=O)N[C@H](CCCCN)C(=O)N[C@H](CCCNC(=N)N)C(=O)N[C@H](Cc1c[nH]c2ccccc12)C(=O)N[C@H](CCCNC(=N)N)C(=O)N[C@H](CC(C)C)C(=O)N[C@H](Cc1ccccc1)C(=O)N[C@H](CCCNC(=N)N)C(=O)N[C@H](CCCCN)C(=O)N[C@H](CCCNC(=N)N)C(=O)O [Chain306D] (H-[dR][dL][dK][dR][dW][dR][dL][dF][dR][dK][dR]-OH)"
test_readout = "Minimum inhibitory concentration"
recorded_measurement = 16

[[record]]
molecule = "CC[C@@H](C)[C@@H](NC(=O)[C@@H](CC(C)C)NC(=O)[C@@H](CCCNC(=N)N)NC(=O)[C@H](N)CCCNC(=N)N)C(=O)N[C@H](Cc1c[nH]c2ccccc12)C(=O)N[C@H](CCCNC(=N)N)C(=O)N[C@H](CCCNC(=N)N)C(=O)N[C@H](Cc1ccccc1)C(=O)N[C@H](CCCCN)C(=O)N[C@H](Cc1c[nH]c2ccccc12)C(=O)N[C@H](CC(C)C)C(=O)N[C@H](CCCNC(=N)N)C(=O)O [Chain204D] (H-[dR][dR][dL][dI][dW][dR][dR][dF][dK][dW][dL][dR]-OH)"
test_readout = "Minimum inhibitory concentration"
recorded_measurement = 4


Okay, now this molecule:
Asked: What value of Minimum inhibitory concentration has been recorded for this entry: CC(C)C[C@@H](NC(=O)[C@H](N)CCCNC(=N)N)C(=O)N[C@H](CCCCN)C(=O)N[C@H](Cc1c[nH]c2ccccc12)C(=O)N[C@H](Cc1ccccc1)C(=O)N[C@H](CC(C)C)C(=O)N[C@H](CC(C)C)C(=O)N[C@H](Cc1ccccc1)C(=O)N[C@H](CCCNC(=N)N)C(=O)N[C@H](CCCCN)C(=O)N[C@H](CCCNC(=N)N)C(=O)O [Chain308D] (H-[dR][dL][dK][dW][dF][dL][dL][dF][dR][dK][dR]-OH)
Given back: 4

###

In this section we review reported Minimum inhibitory concentration values for a set of compounds.
# Test system: C. glabrata
# Protocol details: MIC, clinical yeast strains
# Format: cell-based
# Settings: C. glabrata clinical yeast strain 4
Where a SMILES comes first, the peptide text is derived from it. [ ]: non-standard residue; d: D form.
Write the value as a bare number.

Consider the following illustrative entries.
[[record]]
compound = "CC(C)C[C@@H](NC(=O)[C@@H](CCCCN)NC(=O)[C@@H](CCCCN)NC(=O)[C@@H](Cc1ccccc1)NC(=O)[C@@H](CC(C)C)NC(=O)[C@@H](Cc1c[nH]c2ccccc12)NC(=O)[C@@H](CCCNC(=N)N)NC(=O)[C@@H](Cc1c[nH]c2ccccc12)NC(=O)[C@@H](CCCCN)NC(=O)[C@@H](CCCNC(=N)N)NC(=O)[C@H](N)CCCCN)C(=O)O [Chain310D] (H-[dK][dR][dK][dW][dR][dW][dL][dF][dK][dK][dL]-OH)"
tested_system = "C. glabrata"
recorded_measurement = 128

[[record]]
compound = "C[C@@H]1[C@H](O)[C@@H](C)/C=C/C=C/C=C/C=C/C=C/C=C/C=C/[C@H](O[C@@H]2O[C@H](C)[C@@H](O)[C@H](N)[C@@H]2O)C[C@@H]2O[C@](O)(C[C@@H](O)C[C@@H](O)[C@H](O)CC[C@@H](O)C[C@@H](O)CC(=O)O[C@H]1C)C[C@H](O)[C@H]2C(=O)O"
tested_system = "C. glabrata"
recorded_measurement = 4


Okay, now this compound:
Asked: What value of Minimum inhibitory concentration has been recorded for this entry: CC(C)C[C@@H](NC(=O)[C@H](N)CCCNC(=N)N)C(=O)N[C@H](CCCCN)C(=O)N[C@H](Cc1c[nH]c2ccccc12)C(=O)N[C@H](Cc1ccccc1)C(=O)N[C@H](CC(C)C)C(=O)N[C@H](CC(C)C)C(=O)N[C@H](Cc1ccccc1)C(=O)N[C@H](CCCNC(=N)N)C(=O)N[C@H](CCCCN)C(=O)N[C@H](CCCNC(=N)N)C(=O)O [Chain308D] (H-[dR][dL][dK][dW][dF][dL][dL][dF][dR][dK][dR]-OH)
Given back: 16

###

In this section we review reported Minimum inhibitory concentration values for a set of molecules.
# Tested on: clinical strains of P. aeruginosa
# Protocol details: MIC, microdilution, clinical strains
# Assay type: cell-based
# Settings: Pseudomonas aeruginosa strain 3, Muller Hinton broth-cation adjusted, 0.02% BSA, 0.2% acetic acid
# Method: Minimum inhibition concetrations (MICs) were determined against Escherichia coli (ATCC 25922), Staphylococcus aureus (ATCC 25923), Klebsiella pneumoniae (ATCC 10031) and Pseudomonas aeruginosa (ATCC 27853). […] The susceptibility of these microorganisms to Chain peptides were determined using micro broth dilution assay. […] Concentrations of Chain peptides and reference antibiotics ranged from 0.125 to 128 μg/ml and the MICs were recorded as the lowest concentration with no visual growth of bacteria. […]
Where a SMILES comes first, the peptide text is derived from it. [ ]: non-standard residue; d: D form.
Write the value as a bare number.

Asked: What value of Minimum inhibitory concentration has been recorded for this entry: CC(C)C[C@@H](NC(=O)[C@H](N)CCCNC(=N)N)C(=O)N[C@H](CCCCN)C(=O)N[C@H](CCCNC(=N)N)C(=O)N[C@H](Cc1c[nH]c2ccccc12)C(=O)N[C@H](CCCNC(=N)N)C(=O)N[C@H](CC(C)C)C(=O)N[C@H](Cc1ccccc1)C(=O)N[C@H](CCCNC(=N)N)C(=O)N[C@H](CCCCN)C(=O)N[C@H](CCCNC(=N)N)C(=O)O [Chain306D] (H-[dR][dL][dK][dR][dW][dR][dL][dF][dR][dK][dR]-OH)
Given back: 128

Asked: What do you get for CC[C@@H](C)[C@@H](N)C(=O)N[C@H](Cc1c[nH]c2ccccc12)C(=O)N[C@H](CCCCN)C(=O)N[C@H](CCCNC(=N)N)C(=O)N[C@H](Cc1ccccc1)C(=O)N[C@H](CCCNC(=N)N)C(=O)N[C@H](CC(C)C)C(=O)N[C@H](Cc1ccccc1)C(=O)N[C@H](CCCCN)C(=O)N[C@H](CCCCN)C(=O)N[C@H](Cc1c[nH]c2ccccc12)C(=O)O [Chain304D] (H-[dI][dW][dK][dR][dF][dR][dL][dF][dK][dK][dW]-OH) ?
Given back: 64

Asked: What do you get for CC[C@@H](C)[C@@H](NC(=O)[C@@H](CC(C)C)NC(=O)[C@@H](CCCNC(=N)N)NC(=O)[C@H](N)CCCNC(=N)N)C(=O)N[C@H](Cc1c[nH]c2ccccc12)C(=O)N[C@H](CCCNC(=N)N)C(=O)N[C@H](CCCNC(=N)N)C(=O)N[C@H](Cc1ccccc1)C(=O)N[C@H](CCCCN)C(=O)N[C@H](Cc1c[nH]c2ccccc12)C(=O)N[C@H](CC(C)C)C(=O)N[C@H](CCCNC(=N)N)C(=O)O [Chain204D] (H-[dR][dR][dL][dI][dW][dR][dR][dF][dK][dW][dL][dR]-OH) ?
Given back: 8

Asked: What do you get for CC(C)C[C@@H](NC(=O)[C@H](N)CCCNC(=N)N)C(=O)N[C@H](CCCCN)C(=O)N[C@H](Cc1c[nH]c2ccccc12)C(=O)N[C@H](Cc1ccccc1)C(=O)N[C@H](CC(C)C)C(=O)N[C@H](CC(C)C)C(=O)N[C@H](Cc1ccccc1)C(=O)N[C@H](CCCNC(=N)N)C(=O)N[C@H](CCCCN)C(=O)N[C@H](CCCNC(=N)N)C(=O)O [Chain308D] (H-[dR][dL][dK][dW][dF][dL][dL][dF][dR][dK][dR]-OH) ?
Given back: 4

###

# System: C. glabrata
# Protocol details: MIC, clinical yeast strains
# Type: cell-based
# Settings: C. glabrata clinical yeast strain 4
Where a SMILES comes first, the peptide text is derived from it. [ ]: non-standard residue; d: D form.
In this section we review reported Minimum inhibitory concentration values for a set of compounds.
Write the value as a bare number.

[[record]]
compound = "CC[C@@H](C)[C@@H](N)C(=O)N[C@H](Cc1c[nH]c2ccccc12)C(=O)N[C@H](CCCCN)C(=O)N[C@H](CCCNC(=N)N)C(=O)N[C@H](Cc1ccccc1)C(=O)N[C@H](CCCNC(=N)N)C(=O)N[C@H](CC(C)C)C(=O)N[C@H](Cc1ccccc1)C(=O)N[C@H](CCCCN)C(=O)N[C@H](CCCCN)C(=O)N[C@H](Cc1c[nH]c2ccccc12)C(=O)O [Chain304D] (H-[dI][dW][dK][dR][dF][dR][dL][dF][dK][dK][dW]-OH)"
test_readout = "Minimum inhibitory concentration"
recorded_measurement = 64


Okay, now this compound:
Asked: Identify the measured Minimum inhibitory concentration of CC(C)C[C@@H](NC(=O)[C@@H](Cc1c[nH]c2ccccc12)NC(=O)[C@@H](Cc1ccccc1)NC(=O)[C@@H](Cc1c[nH]c2ccccc12)NC(=O)[C@@H](CCCCN)NC(=O)[C@@H](CCCNC(=N)N)NC(=O)[C@H](N)Cc1c[nH]c2ccccc12)C(=O)N[C@H](Cc1ccccc1)C(=O)N[C@H](CCCCN)C(=O)N[C@H](CCCCN)C(=O)N[C@H](CCCNC(=N)N)C(=O)O [Chain309D] (H-[dW][dR][dK][dW][dF][dW][dL][dF][dK][dK][dR]-OH) for C. glabrata.
Given back: 128
